- assay.explanation: Toxicokinetics (plasma and urine) in cynomolgus monkeys
- experimental.setup: female, cynomolgus monkey, in vivo, iv, 36 mg/kg/d, urinary recoveries (0-8 h urine collection), 36 mg/kg/d, day 7, each animal
Where a SMILES comes first, the peptide text is derived from it. Bridges are numbered along the chain shown (N, C = ends). [ ]: non-standard residue; d: D form. The star is where a group is joined. Octanoyl = CCCCCCCC(=O)*; Dab = NCC[C@H](N)C(=O)O; Abu = CC[C@H](N)C(=O)O
value.type: dose excreted (%)
Give your result in % as a bare value.

[in] Looking for the measured dose excreted of CCCCCCCC(=O)N[C@@H](CCN)C(=O)N[C@H](C(=O)N[C@@H](C(=O)N[C@H]1CCNC(=O)[C@H]([C@@H](C)O)NC(=O)[C@H](CCN)NC(=O)[C@H](CC)NC(=O)[C@H](CC(C)C)NC(=O)[C@@H](Cc2ccccc2)NC(=O)[C@H](CCN)NC1=O)[C@H](C)O)[C@@H](C)O [NAB815] (Octanoyl-[Dab]T[dT][Dab][Dab][dF]L[Abu][Dab]T; lactam 4-C) , can you help?
[out] 33.9

---

I'd be grateful if you could share measured AUC for these entries.
- assay.explanation: Toxicokinetics (plasma and urine) in cynomolgus monkeys
- experimental.setup: cynomolgus monkey, in vivo, iv, 8 mg/kg, AUCs 0-8 h, plasma, after infusion of 8 mg/kg, day 1
Where a SMILES comes first, the peptide text is derived from it. Bridges are numbered along the chain shown (N, C = ends). [ ]: non-standard residue; d: D form. The star is where a group is joined. Octanoyl = CCCCCCCC(=O)*; Dab = NCC[C@H](N)C(=O)O; Abu = CC[C@H](N)C(=O)O
Give your result in µg·h/mL as a bare value.

[in] Looking for the measured AUC of CCCCCCCC(=O)N[C@H](C(=O)N[C@H](CO)C(=O)N[C@H]1CCNC(=O)[C@H]([C@@H](C)O)NC(=O)[C@H](CCN)NC(=O)[C@H](CCN)NC(=O)[C@H](CC(C)C)NC(=O)[C@@H](Cc2ccccc2)NC(=O)[C@H](CCN)NC1=O)[C@@H](C)O [NAB739] (Octanoyl-T[dS][Dab][Dab][dF]L[Dab][Dab]T; lactam 3-C) , can you help?
[out] 108

[in] Now consider CCCCCCCC(=O)N[C@@H](CCN)C(=O)N[C@H](C(=O)N[C@@H](C(=O)N[C@H]1CCNC(=O)[C@H]([C@@H](C)O)NC(=O)[C@H](CCN)NC(=O)[C@H](CC)NC(=O)[C@H](CC(C)C)NC(=O)[C@@H](Cc2ccccc2)NC(=O)[C@H](CCN)NC1=O)[C@H](C)O)[C@@H](C)O [NAB815] (Octanoyl-[Dab]T[dT][Dab][Dab][dF]L[Abu][Dab]T; lactam 4-C) .
[out] 102

---

I'd be grateful if you could share measured AUC for these entries.
- assay.explanation: Toxicokinetics (plasma and urine) in cynomolgus monkeys
- experimental.setup: cynomolgus monkey, in vivo, 36 mg/kg/day, AUCs, plasma, dosed at 36 mg/kg/d, day 1
Where a SMILES comes first, the peptide text is derived from it. Bridges are numbered along the chain shown (N, C = ends). [ ]: non-standard residue; d: D form. The star is where a group is joined. Octanoyl = CCCCCCCC(=O)*; Dab = NCC[C@H](N)C(=O)O; Abu = CC[C@H](N)C(=O)O
Give your result in µg·h/mL as a bare value.

[in] Looking for the measured AUC of CCCCCCCC(=O)N[C@H](C(=O)N[C@H](CO)C(=O)N[C@H]1CCNC(=O)[C@H]([C@@H](C)O)NC(=O)[C@H](CCN)NC(=O)[C@H](CCN)NC(=O)[C@H](CC(C)C)NC(=O)[C@@H](Cc2ccccc2)NC(=O)[C@H](CCN)NC1=O)[C@@H](C)O [NAB739] (Octanoyl-T[dS][Dab][Dab][dF]L[Dab][Dab]T; lactam 3-C) , can you help?
[out] 239

[in] Now consider CCCCCCCC(=O)N[C@@H](CCN)C(=O)N[C@H](C(=O)N[C@@H](C(=O)N[C@H]1CCNC(=O)[C@H]([C@@H](C)O)NC(=O)[C@H](CCN)NC(=O)[C@H](CC)NC(=O)[C@H](CC(C)C)NC(=O)[C@@H](Cc2ccccc2)NC(=O)[C@H](CCN)NC1=O)[C@H](C)O)[C@@H](C)O [NAB815] (Octanoyl-[Dab]T[dT][Dab][Dab][dF]L[Abu][Dab]T; lactam 4-C) .
[out] 153

Data provenance is patent US9763996B2.
